Where do these numbers come from? They come from patent US20120039802A1.

Give Protein ELISA (fold over background) for every item shown.
measuredTarget: T1, cMet-Fc fusion protein (extracellular domain of the cMet receptor expressed as an Fc-fusion protein) (human, UniProt P08581 25-932)
T1 construct: extracellular domain; also called soluble cMet-Fc-fusion protein; soluble cMet receptor; not shown: Fc part
T1 sequence (P08581 25-932): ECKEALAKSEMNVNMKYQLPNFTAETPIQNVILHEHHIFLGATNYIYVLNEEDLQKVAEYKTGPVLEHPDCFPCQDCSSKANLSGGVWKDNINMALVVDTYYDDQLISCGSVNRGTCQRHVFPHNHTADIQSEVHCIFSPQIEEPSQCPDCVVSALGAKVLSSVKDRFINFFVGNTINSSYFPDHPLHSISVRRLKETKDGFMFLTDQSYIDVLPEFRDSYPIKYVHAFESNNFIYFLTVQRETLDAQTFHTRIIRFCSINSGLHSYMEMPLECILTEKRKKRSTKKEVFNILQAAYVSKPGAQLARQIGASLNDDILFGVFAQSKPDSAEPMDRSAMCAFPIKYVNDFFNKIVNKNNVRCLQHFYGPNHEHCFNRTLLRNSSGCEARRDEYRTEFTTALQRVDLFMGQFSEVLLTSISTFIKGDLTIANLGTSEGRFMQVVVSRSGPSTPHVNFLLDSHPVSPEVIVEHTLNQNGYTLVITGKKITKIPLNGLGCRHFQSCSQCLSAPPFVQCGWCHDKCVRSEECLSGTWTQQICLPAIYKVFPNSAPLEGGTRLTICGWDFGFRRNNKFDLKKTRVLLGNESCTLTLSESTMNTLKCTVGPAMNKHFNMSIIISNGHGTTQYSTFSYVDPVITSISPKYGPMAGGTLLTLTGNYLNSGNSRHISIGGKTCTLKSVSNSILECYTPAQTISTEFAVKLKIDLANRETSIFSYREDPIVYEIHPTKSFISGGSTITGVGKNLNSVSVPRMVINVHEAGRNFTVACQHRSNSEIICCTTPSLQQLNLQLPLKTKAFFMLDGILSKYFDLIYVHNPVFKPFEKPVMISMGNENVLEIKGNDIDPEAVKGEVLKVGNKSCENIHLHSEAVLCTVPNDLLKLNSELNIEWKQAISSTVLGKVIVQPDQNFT
testMethodNotes: phage ELISA, cMet-Fc vs TRAIL-Fc
Experimental: Protein phage ELISAs using peptide-displaying phage isolates from the various selection campaigns were performed to determine specificity of the peptides for cMet versus an unrelated Fc-fusion protein (TRAIL-Fe). […] The plates were incubated for 2 hours at room temperature and washed with PBST. cMet-binding peptide-displaying phage were detected using an HRP-conjugated anti-M13 antibody.
I only need the number, in fold, no unit after it.

### Prompt Please report the recorded Protein ELISA (fold over background) for AGWFECEFGFWGCNWLGT [437-A09 peptide-displaying phage (SEQ ID NO: 018)] .
### Response 3.9

### Prompt Entry AQIQGIQKTEQGEFYWFNWFPA [528-F05 peptide-displaying phage (SEQ ID NO: 450)] has what Protein ELISA (fold over background)?
### Response 4.3

### Prompt Form field: reported Protein ELISA (fold over background) of GSSHCNQMITPWQNCGMRAP [446-E12 peptide-displaying phage (SEQ ID NO: 374)]
### Response 3.3

### Prompt Endpoint output: Protein ELISA (fold over background) of AGSIACTGWPYFSCIDLGT [547-H12 peptide-displaying phage (SEQ ID NO: 088)] . Value?
### Response 5.6

### Prompt Which Protein ELISA (fold over background) is listed for GSFNICPYQWCTLWAP [561-C08 peptide-displaying phage (SEQ ID NO: 010)] ?
### Response 3

### Prompt Please report the recorded Protein ELISA (fold over background) for AGKTVCQKWESVCSGMGT [465-C11 peptide-displaying phage (SEQ ID NO: 038)] .
### Response 3.1

### Prompt Quick one: Protein ELISA (fold over background) of GSAGWCYTMNYVDQLCTYMAP [445-E11 peptide-displaying phage (SEQ ID NO: 387)] ?
### Response 3.7
